Data export: Ki values recorded with UniProt P00742.
Sequence (P00742 41-179 limits assumed): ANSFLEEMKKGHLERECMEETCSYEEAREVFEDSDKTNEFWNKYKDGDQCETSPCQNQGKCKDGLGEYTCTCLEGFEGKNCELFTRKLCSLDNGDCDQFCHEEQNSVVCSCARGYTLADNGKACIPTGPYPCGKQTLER
Sequence (P00742 235-488 limits assumed): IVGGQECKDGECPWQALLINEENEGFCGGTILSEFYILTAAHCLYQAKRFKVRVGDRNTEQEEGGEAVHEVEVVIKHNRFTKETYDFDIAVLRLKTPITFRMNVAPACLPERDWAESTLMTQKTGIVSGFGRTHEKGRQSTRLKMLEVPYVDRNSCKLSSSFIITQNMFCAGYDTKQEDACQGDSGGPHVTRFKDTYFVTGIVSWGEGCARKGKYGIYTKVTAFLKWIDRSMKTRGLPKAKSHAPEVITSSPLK

STRUCTURE AS SMILES	Ki
CCOC(=O)C(=O)N(Cc1ccccc1)c1ccc2c(c1)OC[C@@H](COc1ccc(C(=N)N)cc1)O2.O=C(O)C(F)(F)F	2.15 µM
CCOC(=O)C(=O)N(Cc1ccccc1)c1ccc2c(c1)OC[C@H](COc1ccc(C(=N)N)cc1)O2.O=C(O)C(F)(F)F	1.51 µM
N=C(N)c1ccc(OC[C@@H]2COc3ccc(N(Cc4ccccc4)C(=O)C(=O)O)cc3O2)cc1	1.27 µM

* * *

Each entry below lists one item and its recorded Ratio Ki value.
species on record: Homo sapiens; test: Selectivity ratio of Ki for factor 10a (unknown origin) to Ki for thrombin (unknown origin)

STRUCTURE AS SMILES	Ratio Ki
CCOC(=O)C(=O)N(Cc1ccccc1)c1ccc2c(c1)O[C@@H](COc1ccc(C(=N)N)cc1)CO2.O=C(O)C(F)(F)F	35.9
N=C(N)c1ccc(OC[C@H]2COc3cc(N(Cc4ccccc4)C(=O)C(=O)O)ccc3O2)cc1	1.17
N=C(N)c1ccc(OC[C@@H]2COc3cc(N(Cc4ccccc4)C(=O)C(=O)O)ccc3O2)cc1	1.3
CCOC(=O)C(=O)N(Cc1ccccc1)c1ccc2c(c1)OC[C@@H](COc1ccc(C(=N)N)cc1)O2.O=C(O)C(F)(F)F	1.3
N=C(N)c1ccc(OC[C@@H]2COc3ccc(N(Cc4ccccc4)C(=O)C(=O)O)cc3O2)cc1	0.47
N=C(N)c1ccc(OC[C@H]2COc3ccc(N(Cc4ccccc4)C(=O)C(=O)O)cc3O2)cc1	19.1
CCOC(=O)C(=O)N(Cc1ccccc1)c1ccc2c(c1)OC[C@H](COc1ccc(C(=N)N)cc1)O2.O=C(O)C(F)(F)F	3.46
CCOC(=O)C(=O)N(Cc1ccccc1)c1ccc2c(c1)O[C@H](COc1ccc(C(=N)N)cc1)CO2.O=C(O)C(F)(F)F	0.95

Values compiled from ChEMBL document CHEMBL2331149.
